- testedTarget: hTREM2 (Homo sapiens)
- assayProtocol: TREM2 activity by cellular Syk phosphorylation (AlphaScreen/AlphaLISA) in TREM2/DAP12-HEK cells, used for Examples 1-305
- Type: cell-based
- Parameters: expressed in transfected cells
- testContext: HEK293 Cells
quantityKind: hTREM2 Emax

compound	testedTarget	quantityKind	testResult
Cc1ccc(-c2nc([C@H]3CCO[C@@H](c4ccnc(C)c4)C3)nc3nc(C)c(C)cc23)c(F)c1 (single isomer, unassigned) [Example 222]	hTREM2 (Homo sapiens)	hTREM2 Emax	++++ (Emax>250)
Cc1nc2nc(N3CCO[C@@H](c4cnn(C)c4)C3)nc(-c3ccc(Cl)cc3F)c2nc1C [Example 21]	hTREM2 (Homo sapiens)	hTREM2 Emax	++++ (Emax>250)
Cc1ncc2c(-c3ccc(Cl)cc3F)cc(N3CCO[C@@H](c4cnn(C)c4)C3)cc2n1 [Example 153]	hTREM2 (Homo sapiens)	hTREM2 Emax	+++ (Emax>150 and ≤250)
COc1cc([C@H]2CN(c3cc4nc(C)cnc4c(-c4ccc(Cl)cc4F)n3)CCO2)ccn1 [Example 78]	hTREM2 (Homo sapiens)	hTREM2 Emax	+++ (Emax>150 and ≤250)
Cc1nc2nc(N3CCO[C@@H](c4cnn(C)c4)C3)nc(C3CC4(C3)CC(F)(F)C4)c2nc1C [Example 46]	hTREM2 (Homo sapiens)	hTREM2 Emax	+++ (Emax>150 and ≤250)

Note: attention shifts to another entry.
Entry Cc1ccc(-c2nc([C@H]3CCO[C@H](c4ccnc(C)c4)C3)nc3nc(C)c(C)nc23)c(F)c1 [Example 286] : reported hTREM2 Emax = ? +++ (Emax>150 and ≤250)

----------
- testedTarget: hTREM2 (Homo sapiens, UniProt Q9NZC2)
- Sequence (Q9NZC2 19-230): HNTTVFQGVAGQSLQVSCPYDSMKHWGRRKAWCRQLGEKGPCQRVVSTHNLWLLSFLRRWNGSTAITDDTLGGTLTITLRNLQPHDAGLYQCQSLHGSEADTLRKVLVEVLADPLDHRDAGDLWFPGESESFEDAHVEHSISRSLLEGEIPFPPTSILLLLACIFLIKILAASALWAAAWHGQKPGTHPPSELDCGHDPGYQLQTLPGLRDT
- Sequence (O43914 22-113 partner): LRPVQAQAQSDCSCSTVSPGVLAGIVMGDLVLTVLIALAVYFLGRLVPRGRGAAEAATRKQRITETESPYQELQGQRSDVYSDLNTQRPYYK
- assayProtocol: TREM2 activity by cellular Syk phosphorylation (AlphaScreen/AlphaLISA) in TREM2/DAP12-HEK cells, used for Examples 1-305
- Format: cell-based
- Parameters: expressed in transfected cells
- testContext: HEK293 Cells
- Text: In vitro Measurement of Triggering Receptor Expressed on Myeloid Cells 2 activity using cellular phosphorylation of Spleen Tyrosine Kinase (“Syk”) Assays used for Examples 1-305 Pharmacological measurements of TREM2 signaling through DAP12 were made with TREM2 and DAP12 overexpressing HEK293 cells stable cell lines that had been single-cell cloned (“TREM2/DAP12-HEK”). […]
quantityKind: EC50

Query (compound): Cc1cc([C@H]2CN(c3cc(-c4ccc(Cl)cc4F)c4nc(C)c(C)nc4c3)CCO2)ccn1 ; field requested: EC50 ≤ 50 nM

Request the reported EC50 associated with Cc1cc([C@@H]2CN(c3cc4nc(C)ccc4c(-c4ccc(Cl)cc4F)n3)CCO2)ccn1 3000 to 100000 nM

Please give the measured EC50 for this compound: Cc1cc([C@H]2CN(c3nc4nc(C)c(C)nc4c([C@H]4C[C@H](C(F)F)C4)n3)CCO2)ccn1 ≤ 50 nM

Give the measured EC50 of Cc1nc2nc([C@H]3CCO[C@@H](c4cnn(C)c4)C3)nc(C3CCC(F)(F)CC3)c2nc1C (single isomer, unassigned) . ≤ 50 nM

Look up EC50 for this compound: Cc1cc([C@H]2CN(c3nc(-c4ccc(Cl)cc4F)c4ccc(C)nc4n3)CCO2)ccn1 ≤ 50 nM

# lookup: EC50 of Cc1nc2nc(N3CCO[C@@H](c4cnn(C)c4)C3)nc(C3CCC(F)(F)CC3)c2nc1C ≤ 50 nM

EC50 for Cc1nc2nc(N3CCO[C@@H](c4cnn(C)c4)C3)nc([C@@H]3CCC(C)(C)C3)c2nc1C ? 50 to 500 nM

Returns the measured EC50 for the input compound. Input: Cc1nc2nc(N3CCO[C@@H](c4cnn(C5CC5)c4)C3)nc(-c3ccc(F)cc3F)c2nc1C ≤ 50 nM

Recorded EC50 of CCN1Cc2c(cc(N3CCO[C@@H](c4cnn(C)c4)C3)nc2-c2ccc(Cl)cc2F)C1=O , please. 50 to 500 nM

Item Cc1cc([C@@H]2CN(c3nc(-c4ccc(Cl)cc4F)c4cc(C)c(C)nc4n3)CCO2)cnn1 (single isomer, unassigned) has what recorded EC50? ≤ 50 nM

Reported EC50, compound Cc1ccc2c(-c3ccc(Cl)cc3F)nc(N3CCO[C@@H](c4cnn(C)c4)C3)cc2n1 : ____ 50 to 500 nM

Return reported EC50; argument: Cc1cnc2c(-c3ccc(Cl)cc3F)nc([C@H]3CCO[C@H](c4cnn(C)c4)C3)cc2n1 3000 to 100000 nM

For the compound Cc1cc([C@H]2C[C@@H](c3nc(-c4ccc(Cl)cc4F)c4ncc(C)nc4n3)CCO2)ccn1 (single isomer, unassigned) , what EC50 is on record? ≤ 50 nM

Which EC50 value belongs to Cc1ccc(-c2nc([C@@H]3CCO[C@@H](c4cnn(C)c4)C3)nc3nc(C)c(C)cc23)c(F)c1 ? 500 to 3000 nM

Consider the compound shown here: Cc1nc2nc(N3CCO[C@@H](c4cnn(C)c4)C3)nc(N3CCC[C@H](F)C3)c2nc1C (single isomer, unassigned) What is its recorded EC50? 500 to 3000 nM
